Target: Poly(ADP-Ribose)-Polymerase enzyme (PARP) (Homo sapiens, UniProt P09874, E70Q)
Sequence (P09874 whole entry E70Q): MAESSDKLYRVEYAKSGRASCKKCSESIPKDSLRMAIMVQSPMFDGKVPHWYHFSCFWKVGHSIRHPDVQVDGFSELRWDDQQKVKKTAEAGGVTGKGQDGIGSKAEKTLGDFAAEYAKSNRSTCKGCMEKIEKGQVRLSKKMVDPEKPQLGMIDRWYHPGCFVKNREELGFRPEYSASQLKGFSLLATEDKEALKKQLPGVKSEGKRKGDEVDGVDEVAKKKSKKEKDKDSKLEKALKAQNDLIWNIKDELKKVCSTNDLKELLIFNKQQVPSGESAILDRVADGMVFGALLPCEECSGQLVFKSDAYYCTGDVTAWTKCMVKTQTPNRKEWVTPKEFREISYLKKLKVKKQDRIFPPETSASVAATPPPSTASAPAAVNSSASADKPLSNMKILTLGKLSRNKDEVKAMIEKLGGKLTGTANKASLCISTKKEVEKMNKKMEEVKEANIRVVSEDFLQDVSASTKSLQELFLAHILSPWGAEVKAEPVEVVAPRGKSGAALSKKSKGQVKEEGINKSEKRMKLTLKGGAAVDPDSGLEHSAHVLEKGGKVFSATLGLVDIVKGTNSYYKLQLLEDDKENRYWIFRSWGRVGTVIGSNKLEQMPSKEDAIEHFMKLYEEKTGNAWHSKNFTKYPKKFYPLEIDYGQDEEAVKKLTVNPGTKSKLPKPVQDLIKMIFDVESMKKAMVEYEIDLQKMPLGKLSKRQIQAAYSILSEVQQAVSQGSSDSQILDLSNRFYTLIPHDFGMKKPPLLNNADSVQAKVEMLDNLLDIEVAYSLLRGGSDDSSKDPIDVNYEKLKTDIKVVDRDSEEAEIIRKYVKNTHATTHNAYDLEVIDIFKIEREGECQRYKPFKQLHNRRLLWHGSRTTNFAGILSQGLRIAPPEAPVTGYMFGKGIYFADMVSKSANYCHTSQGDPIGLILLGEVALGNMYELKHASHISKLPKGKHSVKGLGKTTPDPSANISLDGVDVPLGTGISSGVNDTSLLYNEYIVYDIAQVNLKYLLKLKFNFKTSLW
Assay: Fluorescence polarization PARP inhibition assay (Texas Red-labeled NAD+ tracer, histone, DNA)
Conditions: standard (control) inhibitor of PARP, value given in materials table
Description: The transfer of Texas Red-ADP ribose to protein substrates (histone and PARP itself) can be monitored through the rotational speed of the fluorescence tracer by the fluorescence polarization method. The assay measures the ability of the test compounds to inhibit the enzyme to transfer fluorescence labeled ADP to protein substrates. A PARP baculovirus which encodes the amino acid sequence of FIG. 6 (SEQ ID NO: 1), was used to infect sf(9) cells. […]
pIC50: −log10 of the molar value.
MEASURED_ATTRIBUTE: pIC50

{"columns": ["SMILES", "MEASURED_ATTRIBUTE", "ASSAY_VALUE"],
 "data": [
  ["O=c1[nH]c2ccccc2c2ccccc12", "pIC50", 6.70]
]}
